molecular target: bovine submaxillary mucin (bovine); experiment: ELISA on BSM-coated wells; periodate-sensitive signal
Reported values of pEC50 for individual entries
Schema: pEC50 number; meaning minus log10 of the concentration expressed in molar units.

binder	reading
Humanized 3F1 VL1,VH3 (antibody, V domains shown) VH: EVQLVQSGAEVKKPGASVKVSCKASGYTFTDHAIHWVRQAPGQGLEWMGYISPGSGDIKYNEKFKDRVTMTADKSSSTAYMQLRSLRSDDTAVYFCKRSLLALDYWGQGTLVTVSS VL: DIQMTQSPSSLSASVGDRVTITCKASQDVGTNIAWYQQKPGKAPKVLIYSASTRHTGVPSRFSGSGSGTDFTLTISSLQPEDFATYFCQQYSSFPLTFGQGTKVEIK	7.91
Humanized 2G12-2B2 VL0,VH1 (antibody, V domains shown) VH: QVQLVQSGAEVKKPGASVKVSCKASGYTFTDHAIHWVRQAPGQGLEWMGYFSPGNDDIKYNEKFRGRVTMTADKSSSTAYMELRSLRSDDTAVYFCKRSLSTPYWGQGTLVTVSS VL: DIVMTQSPDSLAVSLGERATINCKSSQSLLNRGNHKNYLTWYQQKPGQPPKLLIYWASTRESGVPDRFSGSGSGTDFTLTISSLQAEDVAVYYCQNDYTYPYTFGQGTKVEIK	8.35

Proceed to the following item.
The reported pEC50 of the binder Humanized 2G12-2B2 VL0,VH2 (antibody, V domains shown) VH: QVQLVQSGAEVKKPGASVKISCKASGYTFTDHAIHWVRQAPGQGLEWIGYFSPGNDDIKYNEKFRGRVTLTADKSSSTAYMELRSLRSDDTAVYFCKRSLSTPYWGQGTLVTVSS VL: DIVMTQSPDSLAVSLGERATINCKSSQSLLNRGNHKNYLTWYQQKPGQPPKLLIYWASTRESGVPDRFSGSGSGTDFTLTISSLQAEDVAVYYCQNDYTYPYTFGQGTKVEIK was 8.74
